# testedSystem: UniProt P35869
# Sequence (P35869 11-848): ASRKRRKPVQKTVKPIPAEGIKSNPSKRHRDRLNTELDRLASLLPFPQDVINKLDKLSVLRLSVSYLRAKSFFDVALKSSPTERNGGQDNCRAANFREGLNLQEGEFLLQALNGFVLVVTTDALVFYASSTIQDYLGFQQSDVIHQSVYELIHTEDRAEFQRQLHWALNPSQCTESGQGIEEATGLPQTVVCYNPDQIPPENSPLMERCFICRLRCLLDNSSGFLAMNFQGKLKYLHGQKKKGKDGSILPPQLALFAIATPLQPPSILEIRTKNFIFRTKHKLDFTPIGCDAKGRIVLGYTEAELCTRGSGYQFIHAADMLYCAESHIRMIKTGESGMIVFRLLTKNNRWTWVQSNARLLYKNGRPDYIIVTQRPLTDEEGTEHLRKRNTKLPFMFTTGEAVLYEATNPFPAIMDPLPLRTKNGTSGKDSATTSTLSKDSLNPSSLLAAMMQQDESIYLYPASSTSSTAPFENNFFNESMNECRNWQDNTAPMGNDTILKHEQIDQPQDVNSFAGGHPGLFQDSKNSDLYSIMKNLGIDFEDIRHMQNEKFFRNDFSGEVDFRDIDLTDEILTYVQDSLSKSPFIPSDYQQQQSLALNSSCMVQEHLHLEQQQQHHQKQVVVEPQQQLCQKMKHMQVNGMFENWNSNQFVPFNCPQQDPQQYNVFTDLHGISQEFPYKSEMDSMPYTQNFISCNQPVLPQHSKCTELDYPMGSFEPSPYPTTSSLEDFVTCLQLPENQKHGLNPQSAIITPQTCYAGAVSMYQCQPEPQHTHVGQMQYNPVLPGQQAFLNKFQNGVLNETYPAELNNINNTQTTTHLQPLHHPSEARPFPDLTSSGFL
# protocolDescription: In vitro assay 1: antagonism in human cell line (transactivation assay, kynurenic acid prestimulated)
# testSettings: Assay 1: AHR-luc Hum Antagonism IC50 [M], 150 μM kynurenic acid, 20 hours, firefly luciferase
valueType: IC50 (M)

>  <compound>
CC(C)C(O)CNC(=O)c1cc(-c2ccc(Cl)cc2)nn(-c2cc(F)cc(F)c2)c1=O (stereo not shown) [Example 48]

>  <testedSystem>
UniProt P35869

>  <reported>
4.93e-08

$$$$
>  <compound>
C[C@@H](CO)NC(=O)c1cc(-c2ccc(Cl)cc2)nn(-c2cc(F)cc(F)c2)c1=O

>  <testedSystem>
UniProt P35869

>  <reported>
3.08e-08

$$$$

I: O=C(NC(CO)C1CCOC1)c1cc(-c2ccc(OC(F)F)cc2)nn(-c2cccc(F)c2)c1=O (stereo not shown) [Example 144]
II: CC(C)(C)[C@@H](CO)NC(=O)c1cc(-c2ccc(Cl)cc2)nn(-c2cccc(F)c2)c1=O
Ask: Which value of IC50 is smaller, the one for I or the one for II ? Reply briefly: the label of your chosen item.
Result: II
(II: 3.6e-08 M, I: 8.37e-08 M)

---

# testedSystem: AHR (Homo sapiens, UniProt P35869)
# Sequence (P35869 11-848): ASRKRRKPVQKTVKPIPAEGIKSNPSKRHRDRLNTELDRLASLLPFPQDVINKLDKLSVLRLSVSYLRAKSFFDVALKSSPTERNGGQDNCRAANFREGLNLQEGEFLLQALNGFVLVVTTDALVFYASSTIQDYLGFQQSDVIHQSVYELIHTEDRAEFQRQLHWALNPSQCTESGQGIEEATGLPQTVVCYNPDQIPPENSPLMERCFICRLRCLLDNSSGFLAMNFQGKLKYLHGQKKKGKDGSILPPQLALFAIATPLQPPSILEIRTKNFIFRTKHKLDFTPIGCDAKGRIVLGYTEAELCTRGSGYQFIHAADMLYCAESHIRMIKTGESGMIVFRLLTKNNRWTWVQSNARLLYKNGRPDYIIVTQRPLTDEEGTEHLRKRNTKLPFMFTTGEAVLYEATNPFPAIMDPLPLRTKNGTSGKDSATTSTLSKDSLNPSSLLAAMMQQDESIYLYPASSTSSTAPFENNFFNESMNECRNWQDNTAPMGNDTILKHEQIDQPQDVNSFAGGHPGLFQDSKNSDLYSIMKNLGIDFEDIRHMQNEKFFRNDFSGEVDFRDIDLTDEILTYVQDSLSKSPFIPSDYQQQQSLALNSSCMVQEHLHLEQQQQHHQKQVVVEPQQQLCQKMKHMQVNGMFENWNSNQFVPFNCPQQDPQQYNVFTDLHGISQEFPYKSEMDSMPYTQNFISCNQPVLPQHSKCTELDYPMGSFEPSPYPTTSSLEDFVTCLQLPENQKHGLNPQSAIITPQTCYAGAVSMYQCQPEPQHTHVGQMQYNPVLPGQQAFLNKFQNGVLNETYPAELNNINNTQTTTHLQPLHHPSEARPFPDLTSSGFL
# protocolDescription: In vitro assay 1: antagonism in human cell line (transactivation assay, kynurenic acid prestimulated)
# testSettings: Assay 1: AHR-luc Hum Antagonism IC50 [M], 150 μM kynurenic acid, 20 hours, firefly luciferase
valueType: IC50 (M)

Worked set:
>  <compound>
CC(C)[C@@H](CO)NC(=O)c1cc(-c2ccc(Cl)c(F)c2)nn(-c2cc(F)cc(F)c2)c1=O

>  <IC50 / M>
1e-07

$$$$
>  <compound>
C[C@H](CO)NC(=O)c1cc(-c2ccc(C(F)(F)F)cc2)nn(-c2cccc(F)c2)c1=O

>  <IC50 / M>
9.88e-08

$$$$
>  <compound>
COc1ccc(-c2cc(C(=O)N[C@@H](C)CO)c(=O)n(-c3cccc(F)c3)n2)cc1

>  <IC50 / M>
8.72e-08

$$$$

1: O=C(NCC(O)C(F)(F)F)c1cc(-c2ccc(Cl)cc2)nn(-c2cccc(F)c2)c1=O (single isomer, unassigned) [Example 27]
2: CCC(CC)C(O)CNC(=O)c1cc(-c2ccc(Cl)cc2)nn(-c2cccc(F)c2)c1=O (racemic)
3: Cc1ccc(-c2cc(C(=O)N[C@H](CO)C(C)C)c(=O)n(-c3cccc(F)c3)n2)cc1C
Ask: // sort entries: IC50, high to low Show the ranking through the labels, in the order asked for.
Result: 2, 1, 3
(2: 1.72e-07 M, 1: 1.06e-07 M, 3: 3.6e-08 M)
